Here, each record is paired with measured binary diffusion coefficient data.
assay: wn = mass fraction of the nth substance listed; conditions: 800 K; 7000 kPa; Gas; Steady Flow; w1 = 0.5
Assay metric: binary diffusion coefficient (m2/s)

Molecule	Assay metric	Unit of measure	Endpoint result
[HH] [hydrogen] + CCC	binary diffusion coefficient	m2/s	3.37e-05
[HH] [hydrogen] + CC	binary diffusion coefficient	m2/s	4.61e-05
[HH] [hydrogen] + N#N	binary diffusion coefficient	m2/s	6.65e-05
[HH] [hydrogen] + C	binary diffusion coefficient	m2/s	6.5e-05

###

Here, each record is paired with measured binary diffusion coefficient data.
experiment: wn = mass fraction of the nth substance listed; conditions: 800 K; 100 kPa; Gas; Steady Flow; w1 = 0.5
Assay metric: binary diffusion coefficient (m2/s)

Compound	Endpoint result
[HH] [hydrogen] + N#N	0.000427
[HH] [hydrogen] + CC	0.000313
[HH] [hydrogen] + CCC	0.00024
[HH] [hydrogen] + C	0.000434

###

assay: wn = mass fraction of the nth substance listed; conditions: 900 K; 100 kPa; Gas; Steady Flow; w1 = 0.5
Here, each record is paired with measured binary diffusion coefficient data.

Molecule	binary diffusion coefficient (m2/s)
[HH] [hydrogen] + CC	0.000382
[HH] [hydrogen] + N#N	0.000523
[HH] [hydrogen] + C	0.00054
[HH] [hydrogen] + CCC	0.000292

###

assay: wn = mass fraction of the nth substance listed; conditions: 900 K; 7000 kPa; Gas; Steady Flow; w1 = 0.5
Here, each record is paired with measured binary diffusion coefficient data.

Compound	Unit of measure	binary diffusion coefficient
[HH] [hydrogen] + C	m2/s	8.1e-05
[HH] [hydrogen] + CCC	m2/s	4.24e-05
[HH] [hydrogen] + N#N	m2/s	8.11e-05
[HH] [hydrogen] + CC	m2/s	5.59e-05

###

assay: wn = mass fraction of the nth substance listed; conditions: 250 K; 100 kPa; Gas; Steady Flow; w1 = 0.5

Compound	binary diffusion coefficient [m2/s]
[HH] [hydrogen] + N#N	5.86e-05
[HH] [hydrogen] + CCC	3.28e-05
[HH] [hydrogen] + CC	4.29e-05
[HH] [hydrogen] + C	5.3e-05
